# test-details: cancer stem cell viability inhibitors, primary screen, luminescence (AID 2717)
# settings: cancer stem cell-like cells viability, at 7.5 µM, hits give high values
Hit rate of the full screen: of about 300,000 compounds, about 3,200 (1.1%) were called active. The sample holds actives, similar compounds and a random draw of the others, so the mix is not that of the screen.
assay-endpoint: inhibition

O=C(COC(=O)c1ccc(O)cc1O)c1ccc2c(c1)OCCO2 : 8.44% (inactive)
O=C(COC(=O)c1ccc2c(c1)OCCO2)NCc1ccccc1Cl : -17.4% (inactive)
CCOC(=O)c1cnc(-n2nc(C)cc2C)nc1Nc1cccc(C(C)=O)c1 : -9.8% (inactive)
COc1cc([N+](=O)[O-])ccc1NC(=O)COC(=O)CCOc1ccc(C)cc1 : 18.1% (inactive)

Now consider the entry below.
Given CCOC(=O)CCCCCC(=O)Nc1ccc2c(c1)CC(=O)N([C@@H](C)CO)C[C@H](C)[C@@H](CN(C)Cc1ccccc1)O2 , respond with its inhibition.
-7.75% (inactive)

###

# test-details: cancer stem cell viability inhibitors, primary screen, luminescence (AID 2717)
# settings: cancer stem cell-like cells viability, at 7.5 µM, hits give high values
The whole screen tested about 300,000 compounds, of which about 3,200 (1.1%) were called active. The entries come from a sample that favours actives as a whole.
assay-endpoint: inhibition (%)
State the answer as a number, implicitly in %.

Consider the worked cases shown below.
COc1cc2c(-c3ccc4c(c3)OCO4)c(-c3ccsc3)oc(=O)c2cc1OC : 8.35
CC1Sc2ccc(C(=O)NCc3ccccc3Cl)cc2NC1=O (stereo not drawn) : -22.7
C=CC[C@H](CC(=O)OC(C)(C)C)C(=O)OC[C@H]1CCCN1C(=O)[C@H](CC=C)CC(=O)N(CCO)Cc1ccccc1 : 4.1

Fill in inhibition for record CC[C@]1(O)CC2CN(CCc3c([nH]c4ccccc34)[C@@](C(=O)OC)(c3cc4c(cc3OC)N(C=O)[C@H]3[C@@](O)(C(=O)OC)[C@H](OC(C)=O)[C@]5(CC)C=CCN6CC[C@]43[C@@H]65)C2)C1 (stereo partly drawn)
62.5

Look up and state reported inhibition for CC1CCCCC12NC(=O)N(CC(=O)OCc1c(F)cccc1Cl)C2=O (stereo not drawn)
-8.77

Consider the compound CN(CC(=O)NCCc1ccc(S(N)(=O)=O)cc1)CC(=O)Nc1ccc(F)c(F)c1F and give its recorded inhibition.
-16.9

State its inhibition: Cc1ccc(C(=O)OCC(=O)NCc2cc(C)c(O)c(C)c2)cc1S(=O)(=O)N1CCCCC1
-3.22

State its inhibition: CC(OC(=O)c1ccc([N+](=O)[O-])cc1)C(=O)NCC1CCCCC1 (stereo not drawn)
-10.2

###

# test-details: cancer stem cell viability inhibitors, primary screen, luminescence (AID 2717)
# settings: cancer stem cell-like cells viability, at 7.5 µM
In all, about 300,000 compounds went through this assay and about 3,200 (1.1%) were called active. No stated cut-off is given here; in the data, active means inhibition above about 75%; inconclusive means no clear call, values can overlap the other calls; inactive means below that; tested in HMLE shEcad cells. This is one part of a sample in which actives are shown more often than they occur.
Returns: one label drawn from TRUE for active, FALSE for inactive

Before answering, review these 3 worked examples.
COc1ccc(/C=C/c2c(-c3cccc(C)c3)oc3ccc(-c4ccc5c(c4)OCO5)cc23)cc1 : FALSE
CCOC(=O)N1CCN(C(c2cccnc2)c2ccc3cccnc3c2O)CC1 (stereo not given) : FALSE
O=S(=O)(c1ccccc1)c1nc(-c2ccccc2)oc1NCCCN1CCOCC1 : FALSE

Entry C=C(C)COc1ccc(-c2n[nH]c(C)c2-c2ccccc2)c(O)c1 : call = ?
FALSE

Field: outcome | Entry: CCN1CCN(C(c2cccnc2)c2cc(Cl)c3cccnc3c2O)CC1 (stereo not given)
TRUE

Assay result, entry COc1ccc(Nc2ncnc3sc(-c4ccccc4)cc23)c(OC)c1 — outcome?
FALSE

Short answer needed: outcome of this test for N#Cc1nc(-c2ccc(OCc3ccccc3)cc2)oc1NCCCN1CCOCC1 ?
TRUE

Test call for this compound, please: COc1ccc(C#Cc2c(-c3ccc(OC)cc3)oc3ccc(-c4ccc5c(c4)OCO5)cc23)cc1
FALSE

Status in this test for CCc1cc2c(N3CCN(c4nnc(CC)s4)CC3)ncnc2s1 ?
FALSE

How was Oc1ccccc1N1CCN(c2ncnc3sc(-c4ccccc4)cc23)CC1 classified in this test?
TRUE
